Origin of the recorded values: the supplement of paper PMC12669032

Test system: Escherichia coli ED1a
Experiment: growth AUC relative to DMSO control (median of replicates) (fraction); higher = more growth (less inhibition), active = hit call of the paper
Conditions: 20 µM; 24 h
experimental_endpoint: growth AUC
Number only, no unit.

Known results for compounds:
| compound | growth AUC |
| --- | --- |
| N#Cc1c(O)c(Cl)c(Cl)c(C#N)c1Cl | 0.989 |
| Clc1ccccc1-c1nnc(-c2ccccc2Cl)nn1 | 0.99 |
| CCCCCCCCCCCCCN1CC(C)OC(C)C1 (configuration not stated) | 1.01 |

Input: For the compound shown here, CCC(=O)Nc1ccc(Cl)c(Cl)c1 , give the reported growth AUC.
Output: 0.943

Input: For the compound shown here, CC1(C)CCC(Cc2ccc(Cl)cc2)C1(O)Cn1cncn1 (configuration not stated) , give the reported growth AUC.
Output: 0.971

Input: For the compound shown here, C[N+]1(C)CCCCC1.[Cl-] , give the reported growth AUC.
Output: 1.03

Input: For the compound shown here, O=C(NC(=O)c1c(F)cccc1F)Nc1ccc(Oc2ccc(C(F)(F)F)cc2Cl)cc1F , give the reported growth AUC.
Output: 1.03

====

Test system: Akkermansia muciniphila
Test: growth AUC relative to DMSO control (median of replicates) (fraction); higher = more growth (less inhibition), active = hit call of the paper
Conditions: 20 µM; 24 h
Rule: growth AUC under 1 gives NOT MET, otherwise MET.

| molecule | class_assignment |
| --- | --- |
| COC(=O)C1(O)c2ccccc2-c2ccccc21 | NOT MET |
| CC(CCl)OP(=O)(OC(C)CCl)OC(C)CCl (mixture of isomers) | MET |
| CC(C)N(C(=O)SCC(Cl)=C(Cl)Cl)C(C)C | MET |
| COc1nc(C)nc(NC(=O)NS(=O)(=O)c2ccccc2CCC(F)(F)F)n1 | NOT MET |
| COCc1c(F)c(F)c(COC(=O)[C@@H]2[C@@H](C=C(Cl)Cl)C2(C)C)c(F)c1F | MET |

Input: Say whether O=C(NC(=O)c1ccccc1Cl)Nc1ccc(OC(F)(F)F)cc1 shows growth AUC of 1 or more.
Output: MET

Input: Say whether COC(=O)N(OC)c1ccccc1COc1ccn(-c2ccc(Cl)cc2)n1 shows growth AUC of 1 or more.
Output: NOT MET

Input: Say whether O=c1oc2ccccc2c(O)c1C1CC(c2ccc(OCc3ccc(C(F)(F)F)cc3)cc2)Cc2ccccc21 (mixture of isomers) shows growth AUC of 1 or more.
Output: NOT MET

Input: Say whether CCOP(=S)(OCC)SCS(=O)(=O)CC shows growth AUC of 1 or more.
Output: MET

Input: Say whether CCc1cnc(C2=NC(C)(C(C)C)C(=O)N2)c(C(=O)O)c1 (stereo not given) shows growth AUC of 1 or more.
Output: NOT MET

====

Test system: Bacteroides dorei
Assay: growth AUC relative to DMSO control (median of replicates) (fraction); higher = more growth (less inhibition), active = hit call of the paper
Settings: 20 µM; 24 h
Below: a set of entries, each annotated with reported growth AUC.
Number only, no unit.

Known results for compounds:
| compound | growth AUC |
| --- | --- |
| CN(C)C(CSS(=O)(=O)c1ccccc1)CSS(=O)(=O)c1ccccc1 | 1.01 |
| CCCCc1c(C)nc(N(C)C)[nH]c1=O | 0.984 |
| CNC(=O)O/N=C/C(C)(C)S(C)=O (centres undefined) | 1.01 |
| O=C(O)C(F)(F)C(F)(F)C(F)(F)C(F)(F)C(F)(F)C(F)(F)C(F)(F)C(F)(F)C(F)(F)F | 1.01 |

Input: For the compound shown here, Cc1ccn2nc(S(=O)(=O)Nc3c(F)cccc3F)nc2n1 , give the reported growth AUC.
Output: 0.957

Input: For the compound shown here, COc1cc(OC)nc(NC(=O)NS(=O)(=O)c2cc(NC=O)ccc2C(=O)N(C)C)n1 , give the reported growth AUC.
Output: 0.984

Input: For the compound shown here, COP(=S)(OC)SCC(=O)N(c1ccc(Cl)cc1)C(C)C , give the reported growth AUC.
Output: 0.965

Input: For the compound shown here, COC[C@H](C)N(C(=O)CCl)c1c(C)csc1C , give the reported growth AUC.
Output: 0.951

Input: For the compound shown here, CCN(CC)C(=S)[S-].O.O.O.[Na+] , give the reported growth AUC.
Output: 0.978

====

Below: a set of entries, each annotated with reported growth AUC.
Tested on: Escherichia coli ED1a
Experiment: growth AUC relative to DMSO control (median of replicates) (fraction); higher = more growth (less inhibition), active = hit call of the paper
Conditions: 20 µM; 24 h
Number only, no unit.

Known results for molecules:
| molecule | growth AUC |
| --- | --- |
| CCOP(=O)(Sc1ccccc1)Sc1ccccc1 | 0.995 |
| Cc1ccn2nc(S(=O)(=O)Nc3c(F)cccc3F)nc2n1 | 0.969 |
| CCc1cccc(C)c1N(C(=O)CCl)[C@@H](C)COC | 0.981 |
| Cc1cc(Cl)ccc1OCC(=O)O | 1.02 |
| Cc1cc(C)nc(NC(=O)NS(=O)(=O)c2ccccc2C(=O)OC2COC2)n1 | 0.986 |
| CC(Oc1ccc(Cl)cc1Cl)C(=O)O (configuration not stated) | 0.978 |
| CCCSC(=O)N(CCC)CCC | 0.974 |
| COc1ccc(/C(=C/C(=O)N2CCOCC2)c2ccc(Cl)cc2)cc1OC | 1.01 |

Input: For the molecule shown here, ClC1=C(Cl)C2(Cl)C3COCC3C1(Cl)C2(Cl)Cl (configuration not stated) , give the reported growth AUC.
Output: 1

Input: For the molecule shown here, COC(=O)C(C)N(C(=O)Cc1ccccc1)c1c(C)cccc1C (configuration not stated) , give the reported growth AUC.
Output: 0.995

Input: For the molecule shown here, COc1ccccc1N , give the reported growth AUC.
Output: 1

Input: For the molecule shown here, Clc1c(Cl)c(Cl)c(Cl)c(Cl)c1Cl , give the reported growth AUC.
Output: 1.01

====

System: Lactobacillus gasseri
Test: growth AUC relative to DMSO control (median of replicates) (fraction); higher = more growth (less inhibition), active = hit call of the paper
Conditions: 20 µM; 24 h
Rule: growth AUC under 1 gives no, otherwise yes.

Sample answers from the record:
| compound | class_assignment |
| --- | --- |
| CC(C)NC(=O)N1CC(=O)N(c2cc(Cl)cc(Cl)c2)C1=O | yes |
| CCCN(CCC)c1c([N+](=O)[O-])cc(C(C)C)cc1[N+](=O)[O-] | no |
| ClC1=C(Cl)C2(Cl)C3C4C=CC(C4)C3C1(Cl)C2(Cl)Cl (stereo unspecified) | no |
| O=C(NC(=O)c1c(F)cccc1F)Nc1ccc(Oc2ccc(C(F)(F)F)cc2Cl)cc1F | yes |
| O=C(OC1CCCCC1)c1ccccc1C(=O)OC1CCCCC1 | yes |

Input: Say whether C[C@@H](Oc1ccc(Cl)cc1Cl)C(=O)O shows growth AUC of 1 or more.
Output: no

Input: Say whether CCOP(=S)(OCC)SCSCC shows growth AUC of 1 or more.
Output: no

Input: Say whether CC1(C)CON(Cc2ccccc2Cl)C1=O shows growth AUC of 1 or more.
Output: no

====

Tested on: Streptococcus salivarius
Test: growth AUC relative to DMSO control (median of replicates) (fraction); higher = more growth (less inhibition), active = hit call of the paper
Conditions: 20 µM; 24 h
Below: a set of entries, each annotated with reported growth AUC.
Number only, no unit.

Known results for compounds:
| compound | assayed_system | growth AUC |
| --- | --- | --- |
| CNC1=C(c2cccc(C(F)(F)F)c2)C(=O)C(c2ccccc2)O1 (stereo unspecified) | Streptococcus salivarius | 0.988 |
| O=C(O)c1ccc(Cl)nc1 | Streptococcus salivarius | 0.973 |
| CC1(C)[C@H](C(=O)O[C@H](C#N)c2cccc(Oc3ccccc3)c2)[C@@H]1/C=C\C(=O)OC(C(F)(F)F)C(F)(F)F | Streptococcus salivarius | 1.07 |
| O=[N+]([O-])c1ccccc1 | Streptococcus salivarius | 1.01 |
| CCOc1cc(OP(=S)(OC)OC)nc(CC)n1 | Streptococcus salivarius | 0.983 |

Okay, next one:
Input: For the compound shown here, CCNc1nc(Cl)nc(NC(C)(C)C#N)n1 , give the reported growth AUC.
Output: 0.976

====

Below: a set of entries, each annotated with reported growth AUC.
Test system: Clostridium difficile
Assay: growth AUC relative to DMSO control (median of replicates) (fraction); higher = more growth (less inhibition), active = hit call of the paper
Conditions: 20 µM; 24 h
Number only, no unit.

| compound | growth AUC |
| --- | --- |
| Clc1ccc(Cl)cc1 | 0.987 |
| O=C1C=C(N(Cc2ccc(Cl)nc2)CC(F)F)CO1 | 0.978 |
| CN(C)C(CSS(=O)(=O)[O-])CSS(=O)(=O)[O-].[Na+].[Na+] | 0.955 |
| Clc1ccc(C2(Cn3cncn3)OCCO2)c(Cl)c1 | 0.956 |
| Cc1cccc(C)c1N(Cn1cccn1)C(=O)CCl | 1.01 |
| CCNP(=S)(OC)O/C(C)=C/C(=O)OC(C)C (centres undefined) | 0.986 |
| C=CCN=C=S | 1.01 |
| O=C(O)C(F)(F)C(F)(F)C(F)(F)C(F)(F)C(F)(F)C(F)(F)C(F)(F)C(F)(F)F | 0.997 |
| CCC1COC(Cn2cncn2)(c2ccc(Cl)cc2Cl)O1 (centres undefined) | 0.994 |
| CCCN(CCC)c1c([N+](=O)[O-])cc(C(C)C)cc1[N+](=O)[O-] | 0.991 |

Input: For the compound shown here, N#Cc1c[nH]cc1-c1cccc2c1OC(F)(F)O2 , give the reported growth AUC.
Output: 0.978

Input: For the compound shown here, Cc1ccc(NC(=O)c2snnc2C)cc1Cl , give the reported growth AUC.
Output: 1

Input: For the compound shown here, CCOP(=O)(OCC)O/C(=C/Br)c1ccc(Cl)cc1Cl , give the reported growth AUC.
Output: 0.978

Input: For the compound shown here, COCCOC(=O)C(C#N)(C(=O)c1ccccc1C(F)(F)F)c1ccc(C(C)(C)C)cc1 (centres undefined) , give the reported growth AUC.
Output: 0.943

Input: For the compound shown here, CC(C)(C)C(O)(CCc1ccc(Cl)cc1)Cn1cncn1 (centres undefined) , give the reported growth AUC.
Output: 1.06

Input: For the compound shown here, CCCSC(=O)N(CCC)CCC , give the reported growth AUC.
Output: 1.01
